Biological target: T1, human MIC-1 receptor (hGFRAL, GDNF family receptor alpha like) (human, UniProt Q6UXV0 19-394)
T1 sequence (looked up): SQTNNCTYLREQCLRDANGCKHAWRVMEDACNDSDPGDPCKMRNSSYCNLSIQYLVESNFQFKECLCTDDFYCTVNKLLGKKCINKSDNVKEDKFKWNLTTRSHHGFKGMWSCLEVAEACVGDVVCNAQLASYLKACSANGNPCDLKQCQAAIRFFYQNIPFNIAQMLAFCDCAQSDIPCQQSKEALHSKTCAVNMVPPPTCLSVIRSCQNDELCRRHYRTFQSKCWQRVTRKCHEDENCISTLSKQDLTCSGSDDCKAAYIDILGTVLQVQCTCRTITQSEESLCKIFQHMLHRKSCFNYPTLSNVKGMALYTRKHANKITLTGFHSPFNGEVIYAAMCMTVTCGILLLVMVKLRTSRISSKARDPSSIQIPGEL
Assay: cell-based or functional assay
Quick reference for pERK EC50 (nM) among some binders
Give the value, in units of nM, as a plain number.

Field: example entries. Status: answers known.
(AEE)5AES-MIC-1-Δ1-3 (ligand) AEEAEEAEEAEEAEEAESGDHCPLGPGRCCRLHTVRASLEDLGWADWVLSPREVQVTMCIGACPSQFRAANMHAQIKTSLHRLKPDTVPAPCCVPASYNPMVLIQKTDTGVSLQTYDDLLAKDCHCI: 0.5
MIC-1(R2A, N3E, L68E) (ligand) AAEGDHCPLGPGRCCRLHTVRASLEDLGWADWVLSPREVQVTMCIGACPSQFRAANMHAQIKTSLHREKPDTVPAPCCVPASYNPMVLIQKTDTGVSLQTYDDLLAKDCHCI: 0.8
MIC-1(R2A, N3E, P85E) (ligand) AAEGDHCPLGPGRCCRLHTVRASLEDLGWADWVLSPREVQVTMCIGACPSQFRAANMHAQIKTSLHRLKPDTVPAPCCVPASYNEMVLIQKTDTGVSLQTYDDLLAKDCHCI: 0.6

Please find the next binder below.
Enquiry: Dear colleague, I am looking for the recorded pERK EC50 (nM) of the following binder: (GEPS)5-MIC-1 (SEQ ID NO: 1) (ligand) GEPSGEPSGEPSGEPSGEPSARNGDHCPLGPGRCCRLHTVRASLEDLGWADWVLSPREVQVTMCIGACPSQFRAANMHAQIKTSLHRLKPDTVPAPCCVPASYNPMVLIQKTDTGVSLQTYDDLLAKDCHCI
Return: 0.5
